# credit: the EternaBench riboswitch data

Tested on: MS2 coat protein
Assay: apparent Kd, MS2 coat protein; higher = weaker binding; RNA-MaP array
Conditions: ligand present: tryptophan; designed as: ON switch for tryptophan

sequence_record: UAUCGCGCGGCGGCCGCCACUAAUGGCAGAUCUGUCGACUAACAUGAGGAUCACCCAUGUCUAACUAGGACCGGGCCCAAGUUGU
apparent Kd (nM): 40.2
--
sequence_record: GUACACAUGAGGAUCACCCAUGUACUGGUACGAGGACCGGUACGGCCGCCACUCGCCGAGAUUCAUAACACAUCAGAAAGCUCAC
apparent Kd (nM): 15.6
--
sequence_record: ACGCACAUGAGGAUCACCCAUGUGAACCUACGAGGACCGGUACGGCCGCCACUCGCUGUUCCUACCGGCUUAAUUGUCACUGGGU
apparent Kd (nM): 35
--
sequence_record: UCAAUACAGUCGGCCGCCACUGUAACCAAACCUACAUACCAACAUGAGGAUCACCCAUGUUUAUACAGGACCGGGACCUCUAUGA
apparent Kd (nM): 28.5

* * *

Listed below: apparent Kd values for each entry.
Tested on: MS2 coat protein
Assay: apparent Kd, MS2 coat protein; higher = weaker binding; RNA-MaP array; FMN 200 µM where present
Settings: designed as: OFF switch for flavin mononucleotide; no ligand

sequence_record: ACAUUUGGAGGAUAUACCGCUAAGUCAAAUGCAGACCUCCCACAUGAGGAUCACCCAUGUAGAAGGUCAUCUGG
apparent Kd / nM: 17.1

sequence_record: GGGCCGGUGGAGAAGGAGCUUGCAAAAUGCAUGCUAGGAUAUCCACAUGAGGAUCACCCAUGUGGGAAUAUCUGGUUUUCACAG
apparent Kd / nM: 3.98

sequence_record: CCGACCCAAGGAUAUUGUACUGCUGACAUGAGGAUCACCCAUGUAUGUUAACUCGGCCGACGAGAAGGUGGCGACA
apparent Kd / nM: 26.8

sequence_record: ACAAAUGGAGGAUAUACAUGAGGAUCACCCAUGUUUAUCCUACAUAUGUGAUACUCAUGUAGAAGGCCAUAUGA
apparent Kd / nM: 12.7

sequence_record: GUCAGCUCGUGAGGAUAUACAACACUGCUUCGGCAGUGUAUUAAGAUAACAUGAGGAUCACCCAUGUAGAAGGCACGAGCUGAU
apparent Kd / nM: 5.58

sequence_record: GUCCUUUCUGAGGAUAUUAUCUGGUUCGAUUGAUAAGAAGGCAGUACAUGAGGAUCACCCAUGUGGGUCGUUUG
apparent Kd / nM: 37.3

sequence_record: AGUCGGAGCAGAGGAUAUACAUGAGGAUCACCCAUGUAAUAAAGUGAAGCCUGGAAACAGGCAAUGUAGAAGGCUGCUCCGACA
apparent Kd / nM: 28.1

sequence_record: UAUAUAUAGUAAGGAUAUAUAUUUUUUUUUUAAAUAGAAGGUACAGACAUGAGGAUCACCCAUGUUAUAAUAUGGACAUGUGGA
apparent Kd / nM: 99

sequence_record: UUAUACGUUGAGGAUAUGCGAAUUAGUAUAGUUGCAGAAGGCGAUACAUGAGGAUCACCCAUGUUUAUGGGCAU
apparent Kd / nM: 194

sequence_record: GGAUAGGACAGAGGAUAUACGUGCUAGAGAUACUAGCAAAAUUUUCUCACAUGAGGAUCACCCAUGUAGAAGGCUGUCCUAUCG
apparent Kd / nM: 5.08

sequence_record: AAGGUAUACUGAGGAUAUCCGUGGGUAUAUGGGUCUAGGAACAUGAGGAUCACCCAUGUUCCCUAGGAGAAGGCAGGACAUUAA
apparent Kd / nM: 25

sequence_record: GUCAGCUCGUGAGGAUAUGCAACACUGCUUCGGCAGUGUAUUAAGAUCACAUGAGGAUCACCCAUGUAGAAGGCACGAGCUGAU
apparent Kd / nM: 6.36

sequence_record: UGCAUGCUAGGAUAUACGAAACAUUAGGGUUCUUUGUGUGAACAUGAGGAUCACCCAUGUAGAAGGAGCGUGCU
apparent Kd / nM: 151

sequence_record: AAUUUACAGCUAGGAUAUACAUGAGGAUCACCCAUGUAAUCAUAUGAUGUUAUCAUUGUAUGAGUGUAGAAGGAGCAAAUAAGA
apparent Kd / nM: 7.72

sequence_record: CUCGUUAUGUUAGGAUAUGAUGCAUCCCGAUAAUCAGAAGGAACAUGAGGAUCACCCAUGUGACAUUUGGUGAAUACAAGCCAG
apparent Kd / nM: 6.79

* * *

Tested on: MS2 coat protein
Assay: apparent Kd, MS2 coat protein; higher = weaker binding; RNA-MaP array; FMN 200 µM where present
Conditions: designed as: OFF switch for flavin mononucleotide; no ligand
Listed below: apparent Kd values for each entry.

sequence_record: CAGCCCUGAGGAUAUCCAUCCUUGUACAUGAGGAUCACCCAUGUUUUCCUCUGGGCUUUGGGAGAAGGCAGGUAUC
apparent Kd, nM: 74.6
--
sequence_record: UUUCCACAUGAGGAUCACCCAUGUCAGGAUAUUAGAUCUAUUUAUACAUAUAAUUAUUUAAGAAGGGACACUAA
apparent Kd, nM: 18.1
--
sequence_record: GACACCGUGUAGAAGGACCAGUGCGCUACUAUGGUAGGAUAUACAUGAGGAUCACCCAUGUGACGGCUUUCGGUGGGAGCAGUG
apparent Kd, nM: 10.9
--
sequence_record: CAGCGAAAGCUGAAUCUGUAGAGAGAGGAUAUACGUCAUAAGGUGCAUACAUGAGGAUCACCCAUGUAGAAGGCUCUCUACAGU
apparent Kd, nM: 25.3

* * *

Tested on: MS2 coat protein
Assay: apparent Kd, MS2 coat protein; higher = weaker binding; RNA-MaP array; FMN 200 µM where present
Conditions: designed as: ON switch for flavin mononucleotide; no ligand

sequence_record: GUAGGACAUGAGGAUCACCCAUGUGGGAGGGAACGAGGAUAUGUGAAAGGAUUGAAGAGGACAGAAGGCGUGGAGG
endpoint_unit: nM
apparent Kd: 44.4
//
sequence_record: AAGGCCUAUUCCAGGACUAUCGUACUAGAAGGGUGACCUGACAUGAGGAUCACCCAUGUACGGGCACAGGAUAUAGAUGAAAGG
endpoint_unit: nM
apparent Kd: 50.1
//
sequence_record: UUGAGGUGCAAGAAGGAUCACAUGAGGAUCACCCAUGUGAUAUAAAGUCUCGAGAUUUUAUAUCGAUAGGAUAUUGCACCGAAC
endpoint_unit: nM
apparent Kd: 19.9
//
sequence_record: GGAUCCAUCACAGGAUAUGCUGGACUUUGUCCAGCAGAAGGGUGAACAUGAGGAUCACCCAUGUAAAAGGAUCCUAUAUUUAAU
endpoint_unit: nM
apparent Kd: 124
//
sequence_record: CCGGGCGGUUUGCCCACACUGUCACAGGAUAUGCCCAAAACAUGAGGAUCACCCAUGUCAAAUACGCAGAAGGGUGAUCGGAAA
endpoint_unit: nM
apparent Kd: 55.8
//
sequence_record: UUGAAAUUGUAAGGAUAUACUCUGUGAUGAAGAGUAGAAGGUACUUACAUGAGGAUCACCCAUGUUUAACGAGAUACUAAUCGU
endpoint_unit: nM
apparent Kd: 32
//
sequence_record: CGUUGAUUUAUUGGAUGAUAUGAUGAGGAUAUCAAUAUUUGUUACAUGAGGAUCACCCAUGUUAAUGAGAAGGCAUAAUUAACG
endpoint_unit: nM
apparent Kd: 8.49
//
sequence_record: UCCAAAUCGUAGAAGGGUGACAUGAGGAUCACCCAUGUGCAGCAGCCGUGAAUGGCCAUGCUGCCACAGGAUAUACGAUGGAGU
endpoint_unit: nM
apparent Kd: 49
//
sequence_record: GGAGCCCAGUCAGGAUAUGUAACGCUAAGGCUGUUACAUGAGGAUCACCCAUGUUUCACCGUGAAACAGAAGGGACAAUUGGCG
endpoint_unit: nM
apparent Kd: 500
//
sequence_record: GAGAAUACACUCGUCUCCGCUCAACCAGAAGGGCAUGAUAAUAUUACAUGAGGAUCACCCAUGUUGCAGGAUAUGGUGAGCCUC
endpoint_unit: nM
apparent Kd: 141
//
sequence_record: GUAGCAUACAGAGGAUAUCUUAACCGGAAACGGACAUGAGGAUCACCCAUGUGGCGAAAGCCUAGGGAGAAGGCUGAAUGCUAC
endpoint_unit: nM
apparent Kd: 10.2
//
sequence_record: UUUUCUCGUGAGAAGGACAUGAGGAUCACCCAUGUAGGAUAUCGUGGGAGACAGGAAUUGAAUCUUCGGAUUCAAUUCCAGUCU
endpoint_unit: nM
apparent Kd: 107
//
sequence_record: GUAGCAUAGGGAGGAUAUUCAUAUAAUAAAUAAACAUGAGGAUCACCCAUGUGGCGAAAGCCUUGGGAGAAGGCCCAAUGCUAC
endpoint_unit: nM
apparent Kd: 866
//
sequence_record: GGCGGAGACGUUAACAUGAGGAUCACCCAUGUCGAAGGAGAUGAGGAUAUCGCAUACGAUGUAUGUGAGAAGGCAUGGUCUGCC
endpoint_unit: nM
apparent Kd: 30
//
sequence_record: UGGUAUUAGGGAGGAUAUGGGAAGAUACAUGAGGAUCACCCAUGUUUAAGAAUGCCGAGAGGCAACUAGAAGGCCCUAGUACCU
endpoint_unit: nM
apparent Kd: 500
//
sequence_record: ACGGUGGUCACAGGAUAUCCGGCCCGCGUGCCUGGAGAAGGGUGACUCAGAACCACAUGAGGAUCACCCAUGUGCCUUGCCGUA
endpoint_unit: nM
apparent Kd: 92.1
//
sequence_record: UUGGACGUCGUAGGAUGUGUAGGAUAUUCCUACAUGAGGAUCACCCAUGUUGACAUGGAAGAAGGACAGAAGGACGAUGUCCAU
endpoint_unit: nM
apparent Kd: 386
//
sequence_record: AGGAAACAUGAGGAUCACCCAUGUAAAAAAGUGGGAGGAUAUACUAGAAGAAACAAAAUAGUAGAAGGCCUAAAAA
endpoint_unit: nM
apparent Kd: 47.3
//
sequence_record: AAUAUACAUGAGGAUCACCCAUGUUUUGGUGCAUGAGGAUAUAAAAACAAUUACAUAAAGUUAGAAGGCAUGAAUA
endpoint_unit: nM
apparent Kd: 54.9
//
sequence_record: CCAGAUUUCACAGGAUAUAUUGAUGACAUGAGGAUCACCCAUGUACCGGCAGUAGAAGGGUGAACGCACGUGACCACGUGCGUG
endpoint_unit: nM
apparent Kd: 54.1
//
sequence_record: AGUUAAUAUCGAGGAUAUCUCAUGAAUACAUGAGGAUCACCCAUGUGAAUGGGAGAAGGCGAUAUUAACAGCAUGUUACAUGCA
endpoint_unit: nM
apparent Kd: 12.6
//
sequence_record: UUGGACGUCGUAGGAUAUGUAGGAUAUUACUACAUGAGGAUCACCCAUGUUGACAUGGAAGAAGGACAGAAGGACGAUGUCCAU
endpoint_unit: nM
apparent Kd: 638
//
sequence_record: CGAAAAUUUCAGAAGGACCAAUUCCACAUGAGGAUCACCCAUGUCGAUGGUAGGAUAUGGAGUUGUGGACAGGGUGGAUGUUCC
endpoint_unit: nM
apparent Kd: 122
//
sequence_record: AGUGUCAUCGAGAAGGCCUCAACAUGAGGAUCACCCAUGUUGCAAAAUGGGAGGAUAUCGCGCGUUCUAAAACGUUUCGUAGCA
endpoint_unit: nM
apparent Kd: 54.1
//
sequence_record: GUAGCUAUCGGAGGAUAUUCAUGAUACAUGAGGAUCACCCAUGUUAAAGUGGGAGAAGGCCGAUAGCUACAAGAGCGAAAGCUC
endpoint_unit: nM
apparent Kd: 44.8
//
sequence_record: UGUUGUAUUACAGGAUAUCUAGUAAUUUUAUUUAGAGAAGGGUAUUCACAUGAGGAUCACCCAUGUAUAUACGAGGAAGUUGUG
endpoint_unit: nM
apparent Kd: 37
//
sequence_record: UUGGACGUCGGAGGAUAUGUAGGAUAUUCCUACAUGAGGAUCACCCAUGUUGACAUGGAAGAAGGACAGAAGGACGAUGUCCAU
endpoint_unit: nM
apparent Kd: 352
//
sequence_record: UAAUCUCAGAUAGGAUAUAUAGGAUAACUUAAGACCUAACAUGAGGAUCACCCAUGUGAUUAUUCGUAGAAGGAUCAUUGAACU
endpoint_unit: nM
apparent Kd: 254
